Biological target: T1, human DLL3 antigen protein (Kactus Biosystems, Cat. No. DLL-HM103) (human, UniProt Q9NYJ7 27-492)
T1 sequence: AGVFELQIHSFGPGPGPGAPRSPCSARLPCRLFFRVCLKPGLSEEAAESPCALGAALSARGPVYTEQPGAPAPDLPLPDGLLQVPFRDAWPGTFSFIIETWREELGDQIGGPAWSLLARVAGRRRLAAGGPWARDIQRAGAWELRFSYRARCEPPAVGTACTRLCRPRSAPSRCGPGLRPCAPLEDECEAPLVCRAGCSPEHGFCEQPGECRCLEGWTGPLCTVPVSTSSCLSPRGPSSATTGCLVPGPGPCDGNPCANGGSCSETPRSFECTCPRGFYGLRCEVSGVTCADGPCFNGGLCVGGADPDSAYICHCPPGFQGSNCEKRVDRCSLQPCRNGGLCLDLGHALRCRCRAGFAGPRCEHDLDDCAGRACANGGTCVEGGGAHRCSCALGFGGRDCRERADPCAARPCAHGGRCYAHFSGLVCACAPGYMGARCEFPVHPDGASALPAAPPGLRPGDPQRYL
Assay: SPR (Biacore 8K), antibody captured on anti-human Fc, DLL3 in solution
Consider the following binders; for each one, report its Kd.
Entry rule: numbers only, all in nM.

// returns reported Kd for input DLL3-26 camelid-derived anti-DLL3 chimeric antibody (antibody, human IgG1, V domains shown) VH: QVQLVESGGGSVQAGGSLRLSCAASGDIYSSSYVGWFRQAPGKEREGVAIIYTSGDSTYYANSVKGRFTISQDKAKKTLYLQMNSLKPEDTAMYYCAARFAIDNSNYWGQGTQVTVSS 0.0322

// returns reported Kd for input hDLL3-26 camelid-derived humanized anti-DLL3 antibody (antibody, V domains shown) VH: EVQLVESGGGLVQPGGSLRLSCAASGDIYSSSYVGWFRQAPGKEREGVAIIYTSGDSTYYADSVKGRFTISRDNSKNTLYLQMNSLRAEDTAVYYCAARFAIDNSNYWGQGTLVTVSS 1.69

// returns reported Kd for input hDLL3-3-1 camelid-derived humanized anti-DLL3 antibody (antibody, human IgG1, V domains shown) VH: EVQLVESGGGLVQPGGSLRLSCAASTYTISSGYMGWFRQAPGKEREGVAAIYIGGSTTLYADSVKGRFTISRDNSKNTLYLQMNSLRAEDTAVYYCAAQLRPNSAYHPLDGRKYNYWGQGTLVTVSS 0.304

// returns reported Kd for input DLL3-3 camelid-derived anti-DLL3 chimeric antibody (antibody, human IgG1, V domains shown) VH: DVQLVESGGGSVQAGGSLKLSCKSPTYTISSGYMGWFRQAPGKEREGVAAIYIGGSTTLYADSVKGRFTISADNAEKTVYLQMNTLKPEDSAMYYCAAQLRPNSAYHPLDGRKYNYWGQGTQVTVSS 0.127

// returns reported Kd for input hDLL3-122 camelid-derived humanized anti-DLL3 antibody (antibody, V domains shown) VH: EVQLVESGGGLVQPGGSLRLSCAASGDTYRSYCMGWFRQAPGKEREGVADIVSDGSTSYADSVKGRFTISRDNSKNTLYLQMNSLRAEDTAVYYCAVDRGGSGGYCYTGRYDYWGQGTLVTVSS 4.73

// returns reported Kd for input DLL3-122 camelid-derived anti-DLL3 chimeric antibody (antibody, human IgG1, V domains shown) VH: QVQLVESGGGSVQAGGSLRLSCTASGDTYRSYCMGWFRKAPGKEREGVADIVSDGSTSYADSVKGRFTISKDNAKNTLYLQMNSLKPEDTAMYYCAVDRGGSGGYCYTGRYDYWGQGTQVTVSS 4.21

// returns reported Kd for input hDLL3-3-2 camelid-derived humanized anti-DLL3 antibody (antibody, V domains shown) VH: EVQLVESGGGLVQPGGSLRLSCKSPTYTISSGYMGWFRQAPGKEREGVAAIYIGGSTTLYADSVKGRFTISRDNSKNTLYLQMNSLRAEDTAVYYCAAQLRPNSAYHPLDGRKYNYWGQGTLVTVSS 0.399
